Cited source for all entries: patent US20080146500A1

# protocol_text: Pharmacokinetic profiles of PEGylated peptides, plasma peptide by RIA
# Format: in vivo, Fisher 344 rats
# assay_setup: Fisher 344 rats, 100 μg compound/kg, plasma RIA, mean N = 3
# Method: Pharmacokinetic profiles of PEGylated peptides. Healthy Fisher 344 rats (3 animals per group) are injected with 100 μg compound/kg (compound amount based on peptide content and dissolved in PBS buffer). […] PK parameters are then calculated using a model-independent method (WinNonlin Pro, Pharsight Corp., Mountain View, Calif., USA).
endpoint_name: AUC0-last (ng·h/mL)

C6-HSDAVFTDNYTOrnLRAibQVAAAibKYLQC(PEG40K)IOrnNOrnGGPSSGAPPPS (HSDAVFTDNYTXLRXQVAAXKYLQCIXNXGGPSSGAPPPS; non-natural residues) [Agonist P373]
10803
C6-HSDAVFTDNYThRLRAibQVAAAibKYLQSIhRNhRhRYGGPSSGAPPPC(PEG40K)-NH2 (HSDAVFTDNYTXLRXQVAAXKYLQSIXNXXYGGPSSGAPPPC; non-natural residues) [Agonist P340]
515
C6-HDAVFTEQY(OMe)TOrnLRAibQVAAAibOrnYLQSIOrnOrnGGPSSGAPPPC(PEG60K)-NH2 [Agonist P404]
6070
C6-HSDAVFTEQY(OMe)TOrnLRAibQVAK(CO(CH2)2SPEG40K)AibOrnYLQSIOrnOrnGGPSSGAPPPS-NH2 (HSDAVFTEQYTXLRXQVAXXXYLQSIXXGGPSSGAPPPS; non-natural residues) [Agonist P432]
21471

* * *

Measured IC50 by item
# target_under_test: human VPAC1 (Homo sapiens, UniProt P32241)
# Construct: expressed in transfected cells
# Sequence (P32241 31-457): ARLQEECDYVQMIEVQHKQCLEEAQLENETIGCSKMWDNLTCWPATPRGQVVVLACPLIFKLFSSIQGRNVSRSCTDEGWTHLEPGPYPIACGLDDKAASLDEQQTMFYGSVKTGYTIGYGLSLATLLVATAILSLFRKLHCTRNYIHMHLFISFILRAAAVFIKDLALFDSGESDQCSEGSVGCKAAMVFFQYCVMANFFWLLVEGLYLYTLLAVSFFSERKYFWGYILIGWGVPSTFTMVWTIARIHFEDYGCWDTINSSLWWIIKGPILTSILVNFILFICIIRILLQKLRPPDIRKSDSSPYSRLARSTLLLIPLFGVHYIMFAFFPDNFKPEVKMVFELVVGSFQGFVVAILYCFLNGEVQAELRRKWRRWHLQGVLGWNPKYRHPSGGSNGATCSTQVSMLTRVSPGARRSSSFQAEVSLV
# protocol_text: Filter binding assay, membranes from cells transiently transfected with human VPAC1, 125I-labeled VIP tracer
# assay_setup: read-out: Human receptor binding (IC50; nM) VPAC1
Square brackets hold non-standard residues; d marks the D form. Ends that are not written are not given here. * marks the point of attachment. Hexanoyl = CCCCCC(=O)*; Aib = CC(C)(N)C(=O)O
endpoint_name: IC50

C6-HDAVFTEQY(OMe)TOrnLRAibQVAAAibOrnYLQSIOrnOrnGGPSSGAPPPC(PEG60K)-NH2 [Agonist P404]
> 3000 nM
P300 (Hexanoyl-HSDAVFTDNYTRLR[Aib]QVAA[Aib]KYLQSIKNKRYGGPSSGAPPPC(PEG 40 kDa)-NH2) [Agonist P300]
> 3000 nM
P245 (HSDAVFTDNYTRLRKQVAARRYLQSIRNGGPSSGAPPPS; not fully specified (residue 15, N-terminus)) [Agonist P245]
> 25000 nM
P247 (HSDAVFTDNYTRLRRQVAARKYLQSIRNGGPSSGAPPPS; not fully specified (residue 21, N-terminus)) [Agonist P247]
> 25000 nM
C6-HSDAVFTDNYTRLLAKLALQKYLQSIKNKRYGGPSSGAPPPC(PEG40K) (Hexanoyl-HSDAVFTDNYTRLLAKLALQKYLQSIKNKRYGGPSSGAPPPC(PEG 40 kDa)) [Agonist P190, PEGylated peptide obtained from P164 and methoxy-PEG2-MAL-40K]
> 3000 nM
